System: Mycolicibacterium phlei
Experiment: Antibacterial activity against Mycobacterium phlei
Type: functional
measured.metric: MIC (µg/mL)
Numbers only, in µg/mL.

CCCCCCc1ccc(NC(=O)C2=CCN(C)[C@@H]([C@H](O[C@@H]3O[C@H](CN)[C@@H](O)[C@H]3O)[C@H]3O[C@@H](n4ccc(=O)[nH]c4=O)[C@H](O)[C@@H]3O)C(=O)N2C)cc1 ... 0.39
CCCCCCCCCCCCCCCCCCNC(=O)C1=CCN(C)[C@@H]([C@H](O[C@@H]2O[C@H](CN)[C@@H](O)[C@H]2O)[C@H]2O[C@@H](n3ccc(=O)[nH]c3=O)[C@H](O)[C@@H]2O)C(=O)N1C ... 3.13

For each of the compounds below, note its MIC.
1. CC/C=C/CCCCCCCCCCOC(=O)C1=CCN(C)[C@@H]([C@H](O[C@@H]2O[C@H](CN)[C@@H](O)[C@H]2O)[C@H]2O[C@@H](n3ccc(=O)[nH]c3=O)[C@H](O)[C@@H]2O)C(=O)N1C
2. CCCCCCNC(=O)C1=CCN(C)[C@@H]([C@H](O[C@@H]2O[C@H](CN)[C@@H](O)[C@H]2O)[C@H]2O[C@@H](n3ccc(=O)[nH]c3=O)[C@H](O)[C@@H]2O)C(=O)N1C

RESULT:
1. 12.5
2. 100

----------
Tested on: Enterococcus faecium
Experiment: Antibacterial activity against Enterococcus faecium ATCC 19434
Type: functional
measured.metric: MIC

CCCCCCCCCCn1cc(C[C@H](O[C@@H]2O[C@H](CN)[C@@H](O)[C@H]2O)[C@H]2O[C@@H](n3ccc(=O)[nH]c3=O)[C@H](O)[C@@H]2O)nn1 ... > 128 µg/mL
NC[C@H]1O[C@@H](O[C@@H](c2cn(CCCCCOc3ccc(C(=O)c4ccccc4)cc3)nn2)[C@H]2O[C@@H](n3ccc(=O)[nH]c3=O)[C@H](O)[C@@H]2O)[C@H](O)[C@@H]1O ... > 128 µg/mL
CC(=O)N[C@@H]1CCN[C@@H]([C@@H](O[C@@H]2O[C@H](CN)[C@@H](O)[C@H]2O)[C@H]2O[C@@H](n3ccc(=O)[nH]c3=O)[C@H](O)[C@@H]2O)C1 ... > 64 µg/mL

For each of the molecules below, note its MIC.
1. CC(=O)N[C@H]1CCN[C@H]([C@@H](O[C@@H]2O[C@H](CN)[C@@H](O)[C@H]2O)[C@H]2O[C@@H](n3ccc(=O)[nH]c3=O)[C@H](O)[C@@H]2O)C1
2. NC[C@H]1O[C@@H](O[C@@H](c2cn(Cc3ccc(COc4ccc(C(=O)c5ccccc5)cc4)cc3)nn2)[C@H]2O[C@@H](n3ccc(=O)[nH]c3=O)[C@H](O)[C@@H]2O)[C@H](O)[C@@H]1O

RESULT:
> 64 µg/mL
> 128 µg/mL

----------
Tested on: Mycolicibacterium smegmatis
Assay: Antibacterial activity against Mycobacterium smegmatis ATCC 607
Format: functional
Would you kindly list MIC for each of these compounds?

CCCCCCCCCCCCCCCCCCOC(=O)C1=CCN(C)[C@@H]([C@H](O[C@@H]2O[C@H](CN)[C@@H](O)[C@H]2O)[C@H]2O[C@@H](n3ccc(=O)[nH]c3=O)[C@H](O)[C@@H]2O)C(=O)N1C ... > 100 µg/mL
CCc1ccc(NC(=O)C2=CCN(C)[C@@H]([C@H](O[C@@H]3O[C@H](CN)[C@@H](O)[C@H]3O)[C@H]3O[C@@H](n4ccc(=O)[nH]c4=O)[C@H](O)[C@@H]3O)C(=O)N2C)cc1 ... > 100 µg/mL

Now for the compound whose MIC we want.
QUERY: # query: MIC of entry `CCCCCCCc1ccc(NC(=O)C2=CCN(C)[C@@H]([C@H](O[C@@H]3O[C@H](CN)[C@@H](O)[C@H]3O)[C@H]3O[C@@H](n4ccc(=O)[nH]c4=O)[C@H](O)[C@@H]3O)C(=O)N2C)cc1`
RESULT: < 0.2 µg/mL

Hello, the source for this data is ChEMBL document CHEMBL4402510, in case you need it.
